Data origin: BindingDB's records for PubMed 32809817

Target: Galectin-8 (Homo sapiens, UniProt O00214)
Sequence (O00214 whole entry): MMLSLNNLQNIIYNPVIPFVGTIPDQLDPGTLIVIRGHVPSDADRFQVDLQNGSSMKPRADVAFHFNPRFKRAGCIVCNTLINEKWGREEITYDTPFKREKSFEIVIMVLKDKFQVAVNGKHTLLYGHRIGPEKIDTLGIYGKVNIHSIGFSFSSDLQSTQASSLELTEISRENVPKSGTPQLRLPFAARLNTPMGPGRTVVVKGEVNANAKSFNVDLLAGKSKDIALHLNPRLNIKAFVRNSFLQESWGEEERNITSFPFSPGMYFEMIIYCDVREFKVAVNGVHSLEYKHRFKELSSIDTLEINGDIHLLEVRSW
outcome-measure: Kd (µM)
Entry rule: numbers only, all in µM.

## Task State recorded Kd with Galectin-8 (Homo sapiens, UniProt O00214), entry OC[C@H]1O[C@@H](O[C@H]2[C@H](O)[C@@H](O)[C@H](O)O[C@@H]2CO)[C@H](O)[C@@H](O)[C@H]1O [Lactose, anhydrous] , no comment.
## Result 37.9
